System name: Inadl_5, Q8NI35
Sequence (Q8NI35 673-780): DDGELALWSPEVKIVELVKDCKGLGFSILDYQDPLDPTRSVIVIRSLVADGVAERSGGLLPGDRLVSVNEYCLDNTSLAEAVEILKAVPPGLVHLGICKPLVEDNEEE
Test details: holdup assay
Design: key: below the threshold = too weak to quantify, mostly under pKd 3.1 to 4
Condition description: plain residues with an end cap or a label only (N-terminal biotin on a linker: ado-ado)
Provide the reported pKd of each item.
Numbers only.

Examples with their reported pKd follow.
So for VKRNSKETVV [MARCHF3, Q86UD3] , the logged pKd turned out to be 3.67

Given item QSYPSKHDYV [CLDN18, P56856] , the value recorded as its pKd is 3.57

Quick note, pKd for VLYPREGTEV [FOXI1, Q12951] landed at 3.83

Moving on to another binder below.
For SLNANEVEWF [RNF130, Q86XS8] the binder record lists pKd as 3.51
